Below, each entry is listed alongside its reported growth.
# Tested on: MALME-3M melanoma
# procedure.details: NCI-60 one-dose screen, 48 h (100 = growth as untreated, 0 = no growth, -100 = all killed)
# run.conditions: 10 µM unless noted
The panel holds about 83,000 compounds, 20% with a hit somewhere; the sample as a whole holds those more often.
// return numeric value only (unit: %, not printed)

Query string: Name the recorded growth for `CC/C(=C\c1ccc(N(C)C)cc1)c1ccncc1` .
Result string: 9.47

Query string: One more molecule: `Nc1nc(Cl)c2[nH]cnc2n1`
Result string: 94.4

Query string: One more molecule: `Oc1ccccc1/C=N\Nc1ccccc1`
Result string: 95

Query string: One more molecule: CC1CC(C)/C(=N/NC(N)=O)C(C(O)CC2CCC(=O)NC2=O)C1 (stereo not drawn)
Result string: 35.6

Query string: One more molecule: `C[n+]1ccc(C#N)c2ccccc21`
Result string: 26.7

Data origin: PubChem BioAssay (NCI)
